Tested on: 3α-hydroxysteroid dehydrogenase
Assay: Rotation numbers of thio-NAD cycling reactions with 3α-hydroxyandrostanes
Type: biochemical
Conditions: thio-NAD cycling, compound as substrate
From the text: The cycling system using thio-NAD(P) in the enzymatic cycling system is a unique cycling system that appeared relatively recently. […]
property_measured: Rotation number of cycling reaction (Cycle/min)
Report the figure in Cycle/min without appending any unit label.

Illustrative cases are given below, each with its answer.
C[C@H]1CC[C@H]2[C@@H]3CC[C@@H]4C[C@H](O)CC[C@]4(C)[C@H]3CC[C@]12C [5β-17-CH3, 3α-Hydroxy-17β-methyl-5β-Androstane] : 114
C[C@@]12CCC[C@H]1[C@@H]1CC[C@H]3C[C@H](O)CC[C@]3(C)[C@H]1CC2 [5α-17-deoxo, 3α-Hydroxy-5α-Androstane] : 241

# ---- query compound ----
[in] For the compound C[C@H](CCC(=O)NCC(=O)O)[C@H]1CC[C@H]2[C@@H]3[C@H](O)C[C@@H]4C[C@H](O)CC[C@]4(C)[C@H]3CC[C@]12C [Glycochenodeoxycholate, Sodium glycochenodoxycholate, reference compound] , what Rotation number of cycling reaction is on record?
[out] 129
